# assay.comment: Mouse oral single-dose pharmacokinetic study with Compound EB
# Type: in vivo
# condition.notes: male, mouse, plasma, po, 100 mg/kg, male mice, 100 mg/kg single oral gavage, 4 hr
measured.property: concentration at 4 h (µg/mL)
Please state the figure in µg/mL; there is no need to write the unit.

Lookup: Recorded concentration at 4 h for Cc1cccc(C)c1COc1cccc(-c2nnn[nH]2)c1 , please?
Found: 69

* * *

# assay.comment: Rat pilot single-dose oral pharmacokinetic study with Compound EC
# Format: in vivo
# condition.notes: male, Sprague-Dawley, rat, plasma; 100 mg/kg single oral gavage, 6 HR
# Description: Rat Pilot Single-Dose Oral Pharmacokinetic Study with Compound EC Determination of the Plasma Profile of Compound EC Following Single Oral Gavage Administration to Male Rats. Test compound was suspended in 1% HPMC using a tissue homogenizer to minimize particles and maximize uniformity of the suspension and stored at 4° C. […] Following centrifugation, the plasma were harvested into a single tube for each animal at each time point and immediately frozen at −80° C. until analyzed using LC/MS-MS. […]
measured.property: concentration at 6 h (µg/mL)
Please state the figure in µg/mL; there is no need to write the unit.

Lookup: Recorded concentration at 6 h for Cc1cccc(C)c1COc1cccc(Cc2nnn[nH]2)c1 , please?
Found: 22

* * *

# assay.comment: Rat pilot single-dose oral pharmacokinetic study with Compound EC
# Type: in vivo
# condition.notes: male, Sprague-Dawley, rat, plasma; 100 mg/kg single oral gavage, 24 HR
# Method: Rat Pilot Single-Dose Oral Pharmacokinetic Study with Compound EC Determination of the Plasma Profile of Compound EC Following Single Oral Gavage Administration to Male Rats. Test compound was suspended in 1% HPMC using a tissue homogenizer to minimize particles and maximize uniformity of the suspension and stored at 4° C. […] Following centrifugation, the plasma were harvested into a single tube for each animal at each time point and immediately frozen at −80° C. until analyzed using LC/MS-MS. […]
measured.property: concentration at 24 h (ng/mL)
Please state the figure in ng/mL; there is no need to write the unit.

Lookup: Recorded concentration at 24 h for Cc1cccc(C)c1COc1cccc(Cc2nnn[nH]2)c1 [Compound EC] , please?
Found: 0

* * *

# assay.comment: Mouse oral single-dose pharmacokinetic study with Compound EB
# Type: in vivo
# condition.notes: male, mouse, plasma, po, 100 mg/kg, male mice, 100 mg/kg single oral gavage, bleed time 24 HR; read-out: Compound EB concentr. in plasma, individual animals
measured.property: concentration at 24 h (ng/mL)
Please state the figure in ng/mL; there is no need to write the unit.

Lookup: Recorded concentration at 24 h for Cc1cccc(C)c1COc1cccc(-c2nnn[nH]2)c1 , please?
Found: 0

* * *

# assay.comment: Rat pilot single-dose oral pharmacokinetic study with Compound EC
# Format: in vivo
# condition.notes: male, Sprague-Dawley, rat, plasma; 100 mg/kg single oral gavage, 0 HR
measured.property: concentration at 0 h

Lookup: Recorded concentration at 0 h for Cc1cccc(C)c1COc1cccc(Cc2nnn[nH]2)c1 [Compound EC] , please?
Found: 0 ng/mL

* * *

# assay.comment: Rat pilot single-dose oral pharmacokinetic study with Compound EB
# Assay type: in vivo
# condition.notes: Sprague-Dawley, rat; male rats, 100 mg/kg single oral gavage, plasma; read-out: AUC 0-24
# Procedure: Rat Pilot Single-Dose Oral Pharmacokinetic Study with Compound EB Determination of the plasma profile of Compound EB following single oral gavage administration to male rats. Test compound was suspended in 1% HPMC using a tissue homogenizer to minimize particles and maximize uniformity of the suspension and stored at 4° C. […] Following centrifugation, the plasma were harvested into a single tube for each animal at each time point and immediately frozen at −80° C. until analyzed using LC/MS-MS. […]
measured.property: AUC(0-t)
# answer = value followed by unit

Lookup: Recorded AUC(0-t) for Cc1cccc(C)c1COc1cccc(-c2nnn[nH]2)c1 [Compound EB] , please?
Found: 566 µg·h/mL
